test: physchem; settings: ethylene glycol:formamide (4:1), organic solvent or mixture
endpoint: solubility (mg/mL)
Numbers only, in mg/mL.

Qu. Provide measured solubility value, entry: Nc1nc(=O)[nH]cc1F
Ans. 17.9

* * *

test: physchem; conditions: dmf, organic solvent or mixture
endpoint: solubility (µg/mL)
Give bare numbers, in µg/mL.

Qu. Provide measured solubility value, entry: Nc1nc(=O)[nH]cc1F
Ans. 3520

* * *

assay: lipid and aqueous solubilities of 5-IDC and its prodrugs; type: physicochemical; settings: isopropyl myristate, organic solvent or mixture; read-out: Solubility, IPM
Consider the following compounds; for each one, report its solubility at 48 h.
Give bare numbers, in µM.

[[record]]
compound = "O=c1nc(NCN2CCCCC2)c(I)cn1[C@H]1C[C@H](O)[C@@H](CO)O1 [XXIIa, hydrate]"
endpoint = "solubility at 48 h"
unitstext = "µM"
recordedmeasurement = 62


// moving on: another record for solubility at 48 h
Qu. Provide measured solubility at 48 h value, entry: O=c1nc(NCN2CCOCC2)c(I)cn1[C@H]1C[C@H](O)[C@@H](CO)O1 [XXIIIb, hydrate]
Ans. 29

* * *

test: solubilities of prodrugs and parent drugs in selected solvents (Example 8); settings: water, pH 7, water, Solubility, water (apparent)
Consider the following compounds; for each one, report its solubility.

These solved cases illustrate the format of a correct answer.
[[record]]
structuresmilesstring = "CN(C)Cn1cnc2c1c(=O)n(C)c(=O)n2C"
recordedmeasurement = "> 100 mg/mL"

[[record]]
structuresmilesstring = "Cn1c(=O)c2c(ncn2CN2CCCC2)n(C)c1=O"
recordedmeasurement = "> 100 mg/mL"

[[record]]
structuresmilesstring = "CCCN(CCC)Cn1cnc2c1c(=O)n(C)c(=O)n2C"
recordedmeasurement = "> 100 mg/mL"

[[record]]
structuresmilesstring = "O=c1c(F)cn(CN2CCOCC2)c(=O)n1CN1CCOCC1"
recordedmeasurement = "> 100 mg/mL"

[[record]]
structuresmilesstring = "CCN(CC)Cn1cnc2c1c(=O)n(C)c(=O)n2C"
recordedmeasurement = "> 100 mg/mL"


// moving on: another record for solubility
Qu. Provide measured solubility value, entry: Cn1c(=O)c2c(ncn2CN2CCOCC2)n(C)c1=O
Ans. ~100 mg/mL

* * *

experiment: solubility of 5-iodo-2'-deoxycytidine in various vehicles; format: physicochemical; conditions: pg, organic solvent or mixture; read-out: Solubility of 5-IDC, mole fraction
endpoint: solubility (mM)
Numbers only, in mM.

Qu. Provide measured solubility value, entry: Nc1nc(=O)n([C@H]2C[C@H](O)[C@@H](CO)O2)cc1I
Ans. 55.7

* * *

test: solubility of 5-iodo-2'-deoxycytidine in various vehicles; format: physicochemical; conditions: ethylene glycol, organic solvent or mixture; EG, ±SD; read-out: Solubility of 5-IDC
endpoint: solubility (mg/mL)
Answers are plain numbers, in mg/mL.

Qu. Provide measured solubility value, entry: Nc1nc(=O)n([C@H]2C[C@H](O)[C@@H](CO)O2)cc1I
Ans. 31.5

* * *

test: solubility of 5-iodo-2'-deoxycytidine in various vehicles; type: physicochemical; conditions: 1-propanol, organic solvent or mixture; read-out: Solubility of 5-IDC, mole fraction
endpoint: solubility (mM)
Numbers only, in mM.

Qu. Provide measured solubility value, entry: Nc1nc(=O)n([C@H]2C[C@H](O)[C@@H](CO)O2)cc1I
Ans. 6.09

* * *

assay: solubility of 5-iodo-2'-deoxycytidine in various vehicles; assay type: physicochemical; settings: formamide, organic solvent or mixture; read-out: Solubility of 5-IDC, mole fraction
endpoint: solubility (mM)
Answers are plain numbers, in mM.

Qu. Provide measured solubility value, entry: Nc1nc(=O)n([C@H]2C[C@H](O)[C@@H](CO)O2)cc1I
Ans. 161

* * *

test: lipid and aqueous solubilities of 5-IDC and its prodrugs; format: physicochemical; settings: organic solvent or mixture; isopropyl myristate, ±SD; read-out: Solubility, IPM
endpoint: solubility at 48 h (µg/mL)
Numbers only, in µg/mL.

[[record]]
compound = "O=c1nc(NCN2CCOCC2)c(I)cn1[C@H]1C[C@H](O)[C@@H](CO)O1 [XXIIIb, hydrate]"
endpoint = "solubility at 48 h"
recordedmeasurement = 13


Qu. Provide measured solubility at 48 h value, entry: O=c1nc(NCN2CCCCC2)c(I)cn1[C@H]1C[C@H](O)[C@@H](CO)O1 [XXIIa, hydrate]
Ans. 28

* * *

assay: solubilities of prodrugs and parent drugs in selected solvents (Example 8); settings: water, Solubility; suspensions sonicated for 3 hr
endpoint: solubility
Could you write the number and then its unit?

Qu. Provide measured solubility value, entry: O=c1[nH]cc(F)c(=O)[nH]1
Ans. 26.2 mg/mL

* * *

assay: lipid and aqueous solubilities of 5-FC and its derivatives; type: physicochemical; conditions: isopropyl myristate, organic solvent or mixture; read-out: Solubility, IPM
endpoint: solubility at 48 h

These solved cases illustrate the format of a correct answer.
[[record]]
compound = "Nc1nc(=O)[nH]cc1F"
endpoint = "solubility at 48 h"
recordedmeasurement = "39 µM"

[[record]]
compound = "O=c1nc(NCN2CCOCC2)c(F)cn1CN1CCOCC1 [XVI, hydrate]"
endpoint = "solubility at 48 h"
recordedmeasurement = "350 µM"

[[record]]
compound = "CN(C)CNc1nc(=O)n(CN(C)C)cc1F [XIII, hydrate]"
endpoint = "solubility at 48 h"
recordedmeasurement = "950 µM"

[[record]]
compound = "CN1CCN(CNc2nc(=O)n(CN3CCN(C)CC3)cc2F)CC1 [XVII, hydrate]"
endpoint = "solubility at 48 h"
recordedmeasurement = "220 µM"

[[record]]
compound = "O=c1nc(NCN2CCCC2)c(F)cn1CN1CCCC1 [XV, hydrate]"
endpoint = "solubility at 48 h"
recordedmeasurement = "610 µM"


// moving on: another record for solubility at 48 h
Qu. Provide measured solubility at 48 h value, entry: CCN(CC)CNc1nc(=O)n(CN(CC)CC)cc1F [XIV, hydrate]
Ans. 9100 µM

* * *

assay: hydrolysis of 5-IDC derivatives in pH 7.1 buffer; type: physicochemical; settings: 24°, read-out: half-life (t1/2) of hydrolysis
Consider the following compounds; for each one, report its half-life.
Could you write the number and then its unit?

[[record]]
compound = "O=c1nc(NCN2CCOCC2)c(I)cn1[C@H]1C[C@H](O)[C@@H](CO)O1 [XXIIIb, hydrate]"
recordedmeasurement = "12.8 min"


// moving on: another record for half-life
Qu. Provide measured half-life value, entry: O=c1nc(NCN2CCCCC2)c(I)cn1[C@H]1C[C@H](O)[C@@H](CO)O1 [XXIIb, hydrate]
Ans. 0.89 min

* * *

test: solubility of 5-iodo-2'-deoxycytidine in various vehicles; assay type: physicochemical; conditions: eg, organic solvent or mixture; read-out: Solubility of 5-IDC, mole fraction
endpoint: solubility
Could you write the number and then its unit?

Qu. Provide measured solubility value, entry: Nc1nc(=O)n([C@H]2C[C@H](O)[C@@H](CO)O2)cc1I [Compound 5-IDC, 5-iodo-2'-deoxycytidine]
Ans. 89.2 mM

* * *

assay: physchem; settings: 1-octanol, organic solvent or mixture
endpoint: solubility (µg/mL)
Numbers only, in µg/mL.

Qu. Provide measured solubility value, entry: Nc1nc(=O)[nH]cc1F
Ans. 420

* * *

experiment: solubilities of prodrugs and parent drugs in selected solvents (Example 8); conditions: isopropyl myristate, organic solvent or mixture
endpoint: solubility

Qu. Provide measured solubility value, entry: Cn1c(=O)c2[nH]cnc2n(C)c1=O
Ans. 95 µg/mL

* * *

experiment: physchem; conditions: pg, organic solvent or mixture
endpoint: solubility
Could you write the number and then its unit?

Qu. Provide measured solubility value, entry: Nc1nc(=O)[nH]cc1F
Ans. 10.8 mg/mL

* * *

assay: solubility of 5-iodo-2'-deoxycytidine in various vehicles; assay type: physicochemical; conditions: organic solvent or mixture; 1-octanol, ±SD; read-out: Solubility of 5-IDC
endpoint: solubility (µg/mL)
One number for each entry, in µg/mL.

Qu. Provide measured solubility value, entry: Nc1nc(=O)n([C@H]2C[C@H](O)[C@@H](CO)O2)cc1I
Ans. 340

* * *

assay: solubilities of prodrugs and parent drugs in selected solvents (Example 8); conditions: isopropyl myristate, organic solvent or mixture, Solubility, IPM; suspensions sonicated for 3 hr
endpoint: solubility (µg/mL)
Give bare numbers, in µg/mL.

[[record]]
structuresmilesstring = "O=c1[nH]cc(F)c(=O)[nH]1"
unitstext = "µg/mL"
recordedmeasurement = 4.4

[[record]]
structuresmilesstring = "O=c1c(F)cn(CN2CCOCC2)c(=O)n1CN1CCOCC1"
unitstext = "µg/mL"
recordedmeasurement = 11800

[[record]]
structuresmilesstring = "Cn1c(=O)c2c(ncn2CN2CCOCC2)n(C)c1=O"
unitstext = "µg/mL"
recordedmeasurement = 1300


// moving on: another record for solubility
Qu. Provide measured solubility value, entry: Cn1c(=O)c2c(ncn2CN2CCCC2)n(C)c1=O
Ans. 10700
